B1: Transitional endoplasmic reticulum ATPase, residues 26 to 106; numbered along this chain, P55072 (parent)
chain: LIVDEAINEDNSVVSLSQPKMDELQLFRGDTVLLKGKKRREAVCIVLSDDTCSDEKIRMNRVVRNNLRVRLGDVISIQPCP

variants of: B1; assay: abundance fitness (aPCA) (normalised: wild type 0, dead -1); higher = more abundant; growth selection in yeast, the domain comes from the species named; settings: Homo sapiens
measurementLabel: abundance fitness
Just the number, please.

variantName: C80E
abundance fitness: -0.095
//
variantName: D30G
abundance fitness: -0.107

Suppose we examine the variant F27S ; what abundance fitness value has been reported?
0.085

Sample E41V — what was its abundance fitness?
-0.213

What abundance fitness value was documented for this variant, E5C ?
-0.013

I have this variant here, L24R , and I need its recorded abundance fitness.
-0.509

Which value of abundance fitness has been reported for K56A in the records?
0.018

If you can, please state the reported abundance fitness value of A42F .
0.037

Can you look up the measured abundance fitness of K37P for me?
-0.118

For Q18M , what is its reported abundance fitness?
0.249

Bench note: what abundance fitness did L16T show?
-0.793

# get_value(readout='abundance fitness', item= V63E )
-0.223

Quick one: abundance fitness for A42D ?
0.028

Looking for the measured abundance fitness of E23T , can you help?
-0.041

What does the record list as abundance fitness for S12M ?
0.088

Origin of values: the Human Domainome abundance scans (Beltran et al. 2025)
